Target: histone deacetylase, subtype 1 (HDAC1) (Homo sapiens)
Construct: Flag; made in house
Assay: HDAC1-Flag assay (in vitro fluorescent deacetylation assay)
Assay type: biochemical
Conditions: Table 2, compounds of formula III; epitope-tagged human HDAC1 complex, substrate at Km; mean ± spread (N); read-out: HDAC Inhibition (IC50) nm
MEASUREMENT_NAME: IC50 (nM)

Below: 5 compounds and their reported IC50.
Value of measured IC50 for the entry O=C(CCCCCN(CC(=O)N1CCOCC1)CC(=O)N1CCOCC1)NO : 2280

The compound listed as O=C(CCCCCCN(CC(=O)Nc1ccccc1)CC(=O)Nc1ccccc1)NO shows IC50 equal to 18.5

Entry under test: O=C(CCCCN(CC(=O)NCCc1ccccc1)CC(=O)NCCc1ccccc1)NO . Its IC50 was 886

Recorded IC50 (compound O=C(CCCCCN(CC(=O)N1CCCCC1)CC(=O)N1CCCCC1)NO ): 2080

Note to self: IC50 recorded for O=C(CCCCN(CC(=O)Nc1ccccc1)CC(=O)Nc1ccccc1)NO was 133

P. O=C(CCCCCCCN(CC(=O)Nc1ccccc1)CC(=O)Nc1ccccc1)NO
Q. O=C(CCCCN(CC(=O)NCc1ccccc1)CC(=O)NCc1ccccc1)NO
[in] Which has the higher IC50, P or Q ? Please reply using the label of the selected record.
[out] Q
(Q: 907 nM, P: 86.5 nM)

----------
Target: histone deacetylase, subtype 1 (HDAC1) (Homo sapiens, UniProt Q13547)
Construct: Flag; made in house
Sequence (Q13547 whole entry): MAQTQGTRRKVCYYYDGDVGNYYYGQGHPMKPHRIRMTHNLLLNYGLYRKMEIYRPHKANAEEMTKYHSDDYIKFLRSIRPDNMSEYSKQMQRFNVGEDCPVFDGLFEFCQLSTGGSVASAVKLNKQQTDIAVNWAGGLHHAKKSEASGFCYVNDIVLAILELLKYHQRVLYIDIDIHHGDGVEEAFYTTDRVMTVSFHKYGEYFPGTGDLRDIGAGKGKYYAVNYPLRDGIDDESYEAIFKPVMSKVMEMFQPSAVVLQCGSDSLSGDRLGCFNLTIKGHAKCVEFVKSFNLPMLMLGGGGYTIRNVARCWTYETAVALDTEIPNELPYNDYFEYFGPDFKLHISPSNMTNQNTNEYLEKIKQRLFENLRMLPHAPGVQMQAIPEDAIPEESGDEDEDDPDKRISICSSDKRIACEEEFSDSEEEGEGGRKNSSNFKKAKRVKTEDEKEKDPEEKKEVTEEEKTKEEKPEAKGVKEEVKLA
Assay: HDAC1-Flag assay (in vitro fluorescent deacetylation assay)
Assay type: biochemical
Settings: Table 3, compounds of formula IV; epitope-tagged human HDAC1 complex, substrate at Km; mean ± spread (N); read-out: HDAC Inhibition (IC50) nm
MEASUREMENT_NAME: IC50 (µM)

Solved entries (count: 5):
Lab note: measured IC50 of O=C(CCCCCCCCC(=O)N1CCN(c2ccc(Cl)cc2)CC1)NO [Compound 79] was 0.169

Form field IC50, entry O=C(CCC(=O)N1CCN(c2ccccc2Cl)CC1)NO [Compound 68] : 73.3

What the record says about O=C(CCC(=O)N1CCN(c2ccccc2)CC1)NO [Compound 66] : IC50 is 44.3

// field: IC50; key: O=C(CCCC(=O)N1CCN(c2ccccc2)CC1)NO [Compound 71] ; value = 1.22

The reported IC50 of the molecule CC(=O)c1ccc(N2CCN(C(=O)CCC(=O)NO)CC2)cc1 [Compound 70] was 24

A. O=C(CCCCCCC(=O)N(CCc1c[nH]c2ccccc12)Cc1ccc(Br)cc1)NO [Compound 60]
B. O=C(CCCCC(=O)N1CCN(c2cccc(Cl)c2)CC1)NO [Compound 75]
C. O=C(CCC(=O)N1CCN(c2ccc(Cl)cc2)CC1)NO [Compound 67]
[in] Sort the molecules on IC50; start with the lowest figure. Form field (ranking): labels in requested order.
[out] A, B, C

----------
Biological target: histone deacetylase, subtype 1 (HDAC1) (Homo sapiens, UniProt Q13547)
Construct: Flag; made in house
Test: HDAC1-Flag assay (in vitro fluorescent deacetylation assay)
Format: biochemical
Details: Table 1, compounds of formula II; epitope-tagged human HDAC1 complex, substrate at Km; mean ± spread (N); read-out: HDAC Inhibition (IC50) nm
MEASUREMENT_NAME: IC50 (nM)

Below, 5 compounds whose answers are already recorded.
Recorded IC50 (compound O=C(CCCCCC(=O)N(CC(=O)NCc1ccccc1)CC(=O)Nc1ccccc1)NO ): 27.5

Noted for O=C(CCCCCCC(=O)N(CC(=O)Nc1cccc(OCc2ccccc2)c1)CC(=O)Nc1cccc(OCc2ccccc2)c1)NO : its IC50 reads 861

Looking up Cc1cccc2sc(NC(=O)CN(CC(=O)Nc3nc4c(C)cccc4s3)C(=O)CCCCCC(=O)NO)nc12 , I found its IC50 recorded as 14.5

Per the record, O=C(CCCCCC(=O)N(CC(=O)Nc1ccc(N2CCOCC2)cc1)CC(=O)Nc1ccc(N2CCOCC2)cc1)NO has IC50 of 40

For reference, reported IC50 for O=C(CCCCCC(=O)N(CC(=O)NCc1ccccc1)CC(=O)NCc1ccccc1)NO stands at 61.5

A. COc1ccc2nc(NC(=O)CN(CC(=O)Nc3nc4ccc(OC)cc4s3)C(=O)CCCCCC(=O)NO)sc2c1
B. O=C(CCCCCCC(=O)N(CC(=O)NCc1ccccc1)CC(=O)NCc1ccccc1)NO
C. O=C(CCCCCC(=O)N(CC(=O)Nc1ccc2c(c1)Cc1ccccc1-2)CC(=O)Nc1ccc2c(c1)Cc1ccccc1-2)NO
D. O=C(CCCCCC(=O)N(CC(=O)Nc1ccc2c(c1)OCO2)CC(=O)Nc1ccc2c(c1)OCO2)NO
E. O=C(CCCCCC(=O)N(CC(=O)Nc1ccccc1)CC(=O)NC1CCCCC1)NO
[in] // sort entries: IC50, high to low Output the labels ranked as instructed.
[out] B, C, E, D, A
(B: 247 nM, C: 59 nM, E: 34.5 nM, D: 22.5 nM, A: 7.6 nM)

Just for reference, patent US20090023718A1 is where these values come from.
